biological target: DP receptor (Homo sapiens); construct: endogenous in cells; assay: cAMP assay with washed platelets (DP inhibitory activity in vitro); conditions: 100 nM PGD2, cAMP by HTRF, read-out: IC50 (50% DP-inhibitory concentration in the cAMP assay)
Sequence (Q13258 whole entry): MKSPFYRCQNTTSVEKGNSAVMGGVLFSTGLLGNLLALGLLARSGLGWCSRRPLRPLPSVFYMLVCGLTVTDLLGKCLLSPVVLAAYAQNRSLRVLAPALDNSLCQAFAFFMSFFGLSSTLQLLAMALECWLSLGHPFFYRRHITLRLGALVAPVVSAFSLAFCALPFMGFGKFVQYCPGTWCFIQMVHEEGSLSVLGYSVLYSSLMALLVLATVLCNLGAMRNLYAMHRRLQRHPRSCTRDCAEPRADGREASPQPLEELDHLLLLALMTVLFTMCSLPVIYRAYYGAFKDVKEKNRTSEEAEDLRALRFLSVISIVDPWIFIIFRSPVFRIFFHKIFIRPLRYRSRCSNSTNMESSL
Observation Type: IC50 (nM)

[I] CCOc1ccc(S(=O)(=O)N2CCC(c3cn(CC(=O)O)c4ccc(Cl)cc34)C2)cc1 (stereo not shown) [Compound I-38]
[II] CC(C)Oc1ccc(S(=O)(=O)N2CCC(c3cn(CC(=O)O)c4cc(-c5nnco5)ccc34)C2)cc1 (stereo not shown) [Compound I-88]
[III] CC(C)Oc1ccc(S(=O)(=O)N2CCC(c3cn(CC(=O)O)c4cc(-c5nncs5)ccc34)CC2)cc1 [Compound I-102]
Exam item: rank_up(items): orders items by reported IC50 in ascending numerical order. Note for the reader: the ranking is given by listing the labels in the order requested.
Marked response: III, II, I

Numbers sourced from patent US7956082B2.
